metric: melting point

Reference set, count: 10
[[record]]
compound = "N#CC(c1ccccc1)N1CCOCC1 (stereo unspecified)"
obs_value = "69 to 71 °C"

[[record]]
compound = "Cc1cc(-c2ccccc2)n[nH]1"
obs_value = "127 to 128 °C"

[[record]]
compound = "O=C1NC(=O)C(=NNc2ccccc2)C(=O)N1"
obs_value = "309 to 310 °C"

[[record]]
compound = "O=C(Cl)c1ccc(-c2ccccc2)s1"
obs_value = "76 to 80 °C"

[[record]]
compound = "N#CC1(c2c(F)cccc2Cl)CCCCC1"
obs_value = "76 to 81 °C"

[[record]]
compound = "CCOC(=O)Cn1c(Br)nc(Cl)c1Cl"
obs_value = "42 to 45 °C"

[[record]]
compound = "Cc1nsc(-c2ccccc2)n1"
obs_value = "50 to 52 °C"

[[record]]
compound = "O=C(Oc1c(F)c(F)c(F)c(F)c1F)c1cncnc1"
obs_value = "121 to 124 °C"

[[record]]
compound = "O=C(C=Cc1ccc(F)cc1)c1ccccc1"
obs_value = "84 to 88 °C"

[[record]]
compound = "CCOC(=O)c1cnc2c(c(C)nn2C)c1Oc1ccc(OC)cc1"
obs_value = "92 to 93.5 °C"


Output measured melting point for this item: CC(C)(C)OC(=O)Nc1cc(O)cc(C(=O)O)c1
150 to 151 °C

Read off the recorded melting point for COC1(OC)c2ccccc2C(O)(c2ccccc2)c2ccccc21
189 °C

Check the records and state melting point for CN1C2CCC1CC(O)C2 (stereo unspecified)
109 °C

Look up and state reported melting point for O=C(CCl)Nc1ccc(Cl)cc1Cl
105 to 108 °C

Tell us which melting point value is on record for COc1cc(Br)cc(C=O)c1O
129 to 131 °C

Quickly give me recorded melting point for O=C1C(=Cc2ccc(F)cc2)CCCC1=Cc1ccc(F)cc1
147 to 154 °C

====

// reported melting point for each item listed

For the compound O=C(O)c1c(-c2ccccc2)nnc2ccccc12 , give its reported melting point.
216 °C

Tell me melting point reported for O=C(C1=NOC2C(=O)N(c3ccc(Br)cc3)C(=O)C12)c1ccc(Cl)cc1 (stereo not given)
184 °C

Please give the documented melting point of Cc1n[nH]c(S)n1
275 to 277 °C

Answer with the recorded melting point for the compound listed here: c1ccc(COc2ccc3cc[nH]c3c2)cc1
115 °C

Determine from records and report melting point for C#CC(C1COC(C)(C)O1)N(O)Cc1ccccc1 (stereo not given)
115 °C

Dear colleague, please send me the reported melting point for CCC1(O)CCCCC1 when you can.
34.5 °C

Read the entry O=C(OCc1ccccc1)[C@@H](O)[C@H](O)C(=O)OCc1ccccc1 and write its reported melting point.
63 to 65 °C

====

metric: melting point (°C)
# output: bare number, implied unit °C

Sample answers from the record:
[[record]]
compound = "O=C(c1ccccc1)c1noc(-c2ccccc2)c1S(=O)(=O)c1ccccc1"
obs_value = 188

[[record]]
compound = "COc1ccc(C2(C)CCc3oc4ccccc4c3-c3oc(C)cc32)cc1 (configuration not stated)"
obs_value = 145

[[record]]
compound = "COc1ccc(CCNCC(O)COc2cccc(C)c2)cc1OC (configuration not stated)"
obs_value = 138

[[record]]
compound = "[O-][P+](c1ccccc1)(c1ccccc1)C1C2=C(CCCC2)OC2=C1CCCC2"
obs_value = 157

[[record]]
compound = "CC1CN(C2CCCCCCCCCCC2)CC(C)O1 (configuration not stated)"
obs_value = 71

[[record]]
compound = "COc1cc(CCN)cc(OC)c1OC"
obs_value = 35.5

[[record]]
compound = "Oc1cc(F)cc(F)c1"
obs_value = 53

[[record]]
compound = "c1coc(CSCc2ccco2)c1"
obs_value = 31


Provide one value: measured melting point of CC(C)CCCCCCCOC(=O)c1ccccc1C(=O)OCCCCCCCC(C)C
-45.6

Item C=C1CCC2(O)C3Cc4ccc(O)c5c4C2(CCN3CC2CC2)C1O5 (configuration not stated) : provide melting point
189

Return melting point for the following compound: Cn1c(=O)c2c(ncn2CCO)n(C)c1=O
158

Find the measured melting point of Cn1c2c(c3ccccc31)CCCC2 and report it.
52

Give recorded melting point. O=C(CCCCl)c1ccc(Br)cc1
37

Give the value of melting point reported for the following: Cc1cc(Br)cc(Cl)c1N
38.5

Look up and state reported melting point for Oc1c(Cl)c(Cl)cc(Cl)c1Cl
115

// fetch melting point given entry O=C1C(=Cc2ccccc2)SC(=S)N1CN1CCCCC1
114

Given CC(=O)N1CCC[C@H]1C(=O)O , respond with its melting point.
118

# return recorded melting point for input Brc1ccc2c(c1)Oc1cc(Br)ccc1O2
145

Please report melting point for the following compound: COC(=O)c1ccc(Br)o1
64

Quick one: give measured melting point for O=C1CCC(=O)CC1
78

Dear colleague, please send me the reported melting point for O=C(O)c1ccc(S)cc1 when you can.
219

Hello, please tell me recorded melting point for this one: CCCN(CCC)c1c([N+](=O)[O-])cc(C)cc1[N+](=O)[O-]
80

State, in one line, measured melting point of N#Cc1ccc(O)c(F)c1F
147

Return value of melting point for input O=[N+]([O-])c1cc(C(O)Cc2ccc3ccccc3n2)ccc1C(O)Cc1ccc2ccccc2n1 (configuration not stated) , no commentary.
172

Identify measured melting point corresponding to CCN(CCO)CCCC(C)Nc1ccnc2cc(Cl)ccc12 (configuration not stated)
90

Tell me its melting point given O=C(O)c1cc(Cl)c(Cl)c(Cl)c1Cl as the entry.
194

State its melting point for this compound: O=C1c2ccccc2CC2C=CC=CN12 (configuration not stated)
93

Respond only with melting point recorded for Oc1ccc(O)c(Br)c1
112

====

Outcome: Yes for melting point of at least 100 °C; No for anything lower.

Would you please look over these solved cases?
[[record]]
compound = "FC(F)(F)c1ccc2[nH]ccc2c1"
classification = "No"

[[record]]
compound = "N#CCc1cccc(I)c1"
classification = "No"

[[record]]
compound = "Cc1ccccc1NC(=N)NC(=N)N"
classification = "Yes"

[[record]]
compound = "O=C(Oc1ccc(Cl)cc1)c1ccc(C(=O)Oc2ccc(Cl)cc2)cc1"
classification = "Yes"

[[record]]
compound = "Fc1cccc(C(F)(F)F)c1CBr"
classification = "No"


Evaluate Cn1c(=O)c2c(ncn2CC2OCCO2)n(C)c1=O : melting point at minimum 100 °C?
Yes

Can CCCCCCCCc1ccc(NC(=O)c2ccc(CC)cc2)cc1 be said to have melting point at or above 100 °C?
Yes

Is reported melting point greater than or equal to 100 °C here: O=C(O)CC1CCCCC1
No

Threshold query (melting point >= 100 °C) on CC(=O)Oc1ccc2cc(OC(C)=O)ccc2c1
Yes

====

metric: melting point

Please list melting point recorded for the molecule O=Cc1cc(C#Cc2ccccc2)cs1
115 to 118 °C

====

Each entry falls into one class according to its melting point; the ranges are lower level = under 90 °C, middle level = from 90 °C up to 200 °C, upper level = 200 °C and over

[[record]]
compound = "COc1ccc2cc([N+](=O)[O-])ccc2c1"
classification = "middle level"

[[record]]
compound = "Oc1ccccc1Cc1ccccc1"
classification = "lower level"

[[record]]
compound = "O=C(c1ccccc1)C(Br)C(Br)c1ccccc1 (stereo not drawn)"
classification = "middle level"


Form field 'band' for Cc1c(Cl)cc(Cl)c(O)c1Cl
lower level

====

Measured melting point accompanies every entry in the list below.

Some solved cases for reference:
[[record]]
smiles_str = "O=C(O)C=Cc1ccccc1Br"
obs_value = "215 to 216 °C"

[[record]]
smiles_str = "Clc1ncnc2sc3c(c12)CCC3"
obs_value = "108 to 110 °C"

[[record]]
smiles_str = "O=Cc1cccc2c1OCC2"
obs_value = "54 to 55 °C"


Now look at this entry.
Give recorded melting point. NS(=O)(=O)c1ccc(Sc2cccs2)s1
105 to 108 °C

====

Each record here notes measured melting point.

Check the records and state melting point for O=C(O)C=C(CC(=O)O)C(=O)O
187 to 191 °C

Kindly indicate its recorded melting point. Item: O=C(O)c1ccc(O)nn1
246 to 247 °C

Supply reported melting point belonging to this compound: O=C1C=C(NCNc2ccccn2)C(=O)c2ccccc21
134 to 136 °C

Output melting point of CCOC(=O)c1c(N)sc2c1CCC2
90 to 94 °C

====

The following compounds are listed with their measured melting point values.

See these solved cases before continuing.
[[record]]
compound = "CCCCCCC(C)OC(=O)COc1nc(F)c(Cl)c(N)c1Cl (stereo not drawn)"
metric = "melting point"
obs_value = "59 °C"

[[record]]
compound = "COC(=O)c1ccc(OC)c(OC)c1Cl"
metric = "melting point"
obs_value = "46 to 48 °C"

[[record]]
compound = "COc1c(C(=O)Cl)csc1Cl"
metric = "melting point"
obs_value = "66 to 68 °C"

[[record]]
compound = "CCSC1=NN=C(SCC)NN1"
metric = "melting point"
obs_value = "123 to 125 °C"

[[record]]
compound = "Cc1nn(-c2ccccc2)c(C)c1C=O"
metric = "melting point"
obs_value = "125 to 128 °C"

[[record]]
compound = "O=C(CC(=O)c1cc(Cl)ccc1O)c1ccccc1"
metric = "melting point"
obs_value = "107 to 112 °C"

[[record]]
compound = "O=C(O)c1ccc(Oc2cccnc2)o1"
metric = "melting point"
obs_value = "150 to 153 °C"


Specify melting point for CCOC(=O)c1cc2cc([N+](=O)[O-])ccc2o1 and stop.
150 to 155 °C
